Assay: RP, Thermo Scientific Acclaim RSLC 120 C18, 100 × 2.1 mm, 2.2 µm, 30 °C, 0.2 mL/min, estimated dead time 1.1 min; A: 90% water + 10% methanol + 0.01% formic acid + 5 mM ammonium formate, pH 3.61; B: methanol + 0.01% formic acid + 5 mM ammonium formate, pH 3.61; gradient (min/%B) 0/1 1/1 2/39 13/99.9 15/99.9 15.1/1 20.1/1
Assay Conditions: stereoisomer not certain
Answer n if LC retention time is under 6 min, and y if it is 6 min or more.

Record COc1cccc(C2(O)CCCCC2CN)c1 (configuration not stated) [Tramadol-N-bisdesmethyl (dinor-tramadol)] ; criterion: LC retention time no lower than 6 min. Met?
n

Determine whether measured LC retention time meets or exceeds 6 min for Cc1c(N(C)C)c(=O)n(-c2ccccc2)n1C [Aminophenazone. Amidopyrin]
n

# check: LC retention time of Nc1cc(Cl)c(NC2=NCCN2)c(Cl)c1 [Apraclonidin] is greater than or equal to 6 min
n

Kindly determine if LC retention time recorded for CC(C)(C)C(NC(=O)c1nn(CC2CCCCC2)c2ccccc12)C(N)=O (configuration not stated) [MAB-CHMINACA] is above or exactly 6 min.
y

Quick check, LC retention time >= 6 min? CCS(=O)Cc1ccccc1OC(=O)NC (configuration not stated) [Ethiofencarb-sulfoxide]
n

Identify whether the reported LC retention time of the following compound is 6 min or greater: COCCN(C(=O)CS(=O)(=O)O)c1c(C)cccc1C [Dimethachlor-ESA]
n

Dear colleague, could you confirm whether CSc1nc(NC(C)C)nc(NC(C)C)n1 [Prometryn] has LC retention time at or above 6 min?
y

Exam item: decide whether the reported LC retention time for CCC(C)C(=O)OC1CC(O)C=C2C=CC(C)C(CCC(O)CC(O)CC(=O)O)C21 (configuration not stated) [Pravastatin] is at least 6 min.
y

Does LC retention time meet or surpass 6 min for N#Cc1nn(-c2c(Cl)cc(C(F)(F)F)cc2Cl)c(N)c1C(F)(F)F [Fipronil-desulfinyl] ?
y

Given the entry CC1CCc2cc(F)cc3c(=O)c(C(=O)O)cn1c23 (configuration not stated) [Flumequine] , answer whether its LC retention time meets or surpasses 6 min.
y

Kindly determine if LC retention time recorded for Cc1ccc(S(=O)(=O)NC(=O)NC2C3CCC(C)(C2O)C3(C)C)cc1 (configuration not stated) [Glibornuride] is above or exactly 6 min.
y

Does the reported LC retention time for CN1CCN(CCCN2c3ccccc3Sc3ccc(C(F)(F)F)cc32)CC1 [Trifluoperazine] fall at or above the 6 min mark?
y

Dear colleague, could you confirm whether CN(C)CCN(Cc1ccc(Cl)cc1)c1ccccn1 [Chloropyramine] has LC retention time at or above 6 min?
y

Could you tell me if the measured LC retention time of CC(Oc1ccc(Oc2nc3ccc(Cl)cc3o2)cc1)C(=O)O (configuration not stated) [Fenoxaprop-P] reaches 6 min or more?
y

Record CC(C)(C)C(NC(=O)c1nn(Cc2ccc(F)cc2)c2ccccc12)C(N)=O (configuration not stated) [ADB-FUBINACA] ; criterion: LC retention time no lower than 6 min. Met?
y

Item O=C1NCCN1CCN1CCC(c2cn(-c3ccc(F)cc3)c3ccc(Cl)cc23)CC1 [Sertindole] with LC retention time of 6 min or above?
y

Kindly determine if LC retention time recorded for CN(C)S(=O)(=O)c1ccc2c(c1)N(CCCN1CCC(CCO)CC1)c1ccccc1S2 [Pipotiazine] is above or exactly 6 min.
y

I'd appreciate it if you could say whether CN1C(=O)CN=C(C2=CCCCC2)c2cc(Cl)ccc21 [Tetrazepam] has LC retention time at least equal to 6 min.
y

For this compound, is measured LC retention time 6 min or higher? CC(C)(C)NCC(O)c1cc(Cl)c(N)c(C(F)(F)F)c1 (configuration not stated) [Mabuterol]
n

LC retention time >= 6 min for CNC(C)Cc1ccc(F)cc1 (configuration not stated) [Amphetamine-4-F-Methyl (4-F-methamphetamine)] ?
n

Textbook exercise: given the entry CCCCCn1nc(C(=O)NC23CC4CC(CC(C4)C2)C3)c2ccccc21 [AKB48 (APINACA)] , state whether its LC retention time is greater than or equal to 6 min.
y

Does LC retention time meet or surpass 6 min for CCc1cccc(C)c1N1C(=O)COCC1C (configuration not stated) [Metolachlor-morpholinon] ?
y

Form field: LC retention time at least 6 min? Entry: [O-][n+]1nc(-n2ccnc2)nc2ccc(Cl)cc21 [Triazoxide]
y

Entry O=C1OCCN1N=Cc1ccc([N+](=O)[O-])o1 [Furazolidone] : is its LC retention time no less than 6 min?
n

Could you verify whether the entry COc1cc(O)c(C(=O)c2ccccc2)cc1S(=O)(=O)O [Benzophenone-4] shows LC retention time of no less than 6 min?
y

Item CN(C)c1ccccc1 [Dimethylanilin (N.N-)] with LC retention time of 6 min or above?
y

# bool: LC retention time of CN(C)CCC=C1c2ccccc2Sc2ccc(Cl)cc21 [Chlorprotixene] >= 6 min
y

Please check the record c1ccc2c(c1)[nH]c1ccncc12 [5-Carboline] and state if its LC retention time is at or above 6 min.
y

Decide: LC retention time of CCc1cc2c(cc1CC)CC(NCC(O)c1ccc(O)c3[nH]c(=O)ccc13)C2 (configuration not stated) [Indacaterol] >= 6 min?
y

Could you verify whether the entry Cc1ccc(S(=O)(=O)NC(=O)NN2CCCCCC2)cc1 [Tolazamide] shows LC retention time of no less than 6 min?
y

State whether the measured LC retention time reaches 6 min, counting equality as reaching it, for Cc1nnc2n1-c1ccc([N+](=O)[O-])cc1C(c1ccccc1)=NC2 [Nitrazolam]
y
